- test.system: HLA-B*27:05 (Homo sapiens, UniProt P01889, D138H/D201E/E176V/E204Q/G107R/H137Y/K202T/N104T/N87E/Q56L/Q94K/R106L/R155S/R180L/S101D/S121N/S48T/Y140D/Y33H/Y91C)
- assay.procedure: biochemical
- Assay type: binding
Ends that are not written are not given here.
Measured IC50, listed per entry.
measured.quantity: IC50 (nM)

1) GRAAICGKY [NS5B-2936]
1
2) ARMILMTHF [NS5B-2841]
1.1
3) ARHTPVNSW [NS5B-2820]
338

Source of measurements: paper PMC3867523
